Target: Heat shock protein HSP 90-alpha (Homo sapiens, UniProt P07900)
Experiment: Inhibition of recombinant Homo sapiens (human) Hsp90 alpha ATPase activity assessed as inorganic phosphate release by malachite green colorimetric method
pIC50: −log10 of the molar value.
Reported pIC50 values for the following compounds.
Experimental readout: pIC50

compound=O=C(C[n+]1ccccc1)Nc1ccc([N+](=O)[O-])cc1 experimental_readout=pIC50 reading=4.83
compound="Cc1ncc(C[n+]2csc(CCO)c2C)c(N)n1 [THIAMINE ION]" experimental_readout=pIC50 reading=4.90
compound=O=C(C[n+]1ccccc1)NCc1ccccc1 experimental_readout=pIC50 reading=4.30
compound=Cc1cccc(NC(=O)C[n+]2cccc(C(N)=O)c2)c1 experimental_readout=pIC50 reading=4.88
compound=NC(=O)c1ccc[n+](CC(=O)Nc2ccc([N+](=O)[O-])cc2)c1 experimental_readout=pIC50 reading=5.12
compound=Cc1ccc(NC(=O)C[n+]2cccc(C(N)=O)c2)cc1 experimental_readout=pIC50 reading=4.37
compound=C=CCNC(=O)c1ccc[n+](CC(=O)Nc2ccc(OC)cc2)c1 experimental_readout=pIC50 reading=4.31
compound=NS(=O)(=O)c1ccc(NC(=O)C[n+]2cccc(C(=O)Nc3ccccc3)c2)cc1 experimental_readout=pIC50 reading=4.58
compound=NC(=O)c1ccc[n+](CC(=O)Nc2ccc(S(N)(=O)=O)cc2)c1 experimental_readout=pIC50 reading=4.92
compound=Cc1ccc(NC(=O)C[n+]2cccc(C(=O)Nc3ccc(Cl)cc3)c2)cc1 experimental_readout=pIC50 reading=4.76
compound=Cc1ccc(NC(=O)C[n+]2cccc(C(=O)Nc3ccccc3)c2)cc1 experimental_readout=pIC50 reading=5.13
compound=NC(=O)c1ccc[n+](CC(=O)NCCc2ccccc2)c1 experimental_readout=pIC50 reading=4.79
